- Tested on: 138582-337-R-J1-PDC complex spheroid viability;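 further: spheroids exposed to agents for 7 days; 100% = DMSO vehicle control viability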
- test_summary: Anticancer human tumor 138582-337-R-J1-PDC patient-derived Merkel cell tumor cell line growth inhibition
- study_conditions: second compound 0.316 µM; first compound 0.1 µM; active compounds read low
endpoint: viability, T/C (%)
Only the number, expressed in %, is required.

These solved cases illustrate the format of a correct answer.
O=C(C=Cn1cnc(-c2cc(C(F)(F)F)cc(C(F)(F)F)c2)n1)NNc1cnccn1 + NC1CCC(NC2CC2c2ccccc2)CC1 | 20.7
COc1cc(Nc2ncc3c(n2)-c2ccc(Cl)cc2C(c2c(F)cccc2OC)=NC3)ccc1C(=O)O + NC1CC1c1ccc(-c2cccc(O)c2)cc1 | 64.3
O=C(C=Cn1cnc(-c2cc(C(F)(F)F)cc(C(F)(F)F)c2)n1)NNc1cnccn1 + NC1CC1c1ccc(-c2cccc(O)c2)cc1 | 16.2
CC(C)CC(NC(=O)CNC(=O)c1cc(Cl)ccc1Cl)B1OC(=O)CC(CC(=O)O)(C(=O)O)O1 (configuration not stated) + NC1CCC(NC2CC2c2ccccc2)CC1 | 0.49
CC[C@@]1(O)C(=O)OCc2c1cc1n(c2=O)Cc2cc3c(CN(C)C)c(O)ccc3nc2-1 + NC1CCC(NC2CC2c2ccccc2)CC1 | 92.2
COc1cc(Nc2ncc3c(n2)-c2ccc(Cl)cc2C(c2c(F)cccc2OC)=NC3)ccc1C(=O)O + NC1CCC(NC2CC2c2ccccc2)CC1 | 86.8

As a next step, examine the compound that follows.
Result for CC1COCCN1c1cc(-c2ccnn2C)c2ccnc(-c3ccn[nH]3)c2n1 (configuration not stated) + NC1CC1c1ccc(-c2cccc(O)c2)cc1 , tested on 138582-337-R-J1-PDC complex spheroid viability, viability, T/C: 42.9
